# target-entity: T1, human CD98hc endogenously expressed on HCMEC/D3 cells (human)
# T1 construct: human brain endothelial cell line
# T1 chain: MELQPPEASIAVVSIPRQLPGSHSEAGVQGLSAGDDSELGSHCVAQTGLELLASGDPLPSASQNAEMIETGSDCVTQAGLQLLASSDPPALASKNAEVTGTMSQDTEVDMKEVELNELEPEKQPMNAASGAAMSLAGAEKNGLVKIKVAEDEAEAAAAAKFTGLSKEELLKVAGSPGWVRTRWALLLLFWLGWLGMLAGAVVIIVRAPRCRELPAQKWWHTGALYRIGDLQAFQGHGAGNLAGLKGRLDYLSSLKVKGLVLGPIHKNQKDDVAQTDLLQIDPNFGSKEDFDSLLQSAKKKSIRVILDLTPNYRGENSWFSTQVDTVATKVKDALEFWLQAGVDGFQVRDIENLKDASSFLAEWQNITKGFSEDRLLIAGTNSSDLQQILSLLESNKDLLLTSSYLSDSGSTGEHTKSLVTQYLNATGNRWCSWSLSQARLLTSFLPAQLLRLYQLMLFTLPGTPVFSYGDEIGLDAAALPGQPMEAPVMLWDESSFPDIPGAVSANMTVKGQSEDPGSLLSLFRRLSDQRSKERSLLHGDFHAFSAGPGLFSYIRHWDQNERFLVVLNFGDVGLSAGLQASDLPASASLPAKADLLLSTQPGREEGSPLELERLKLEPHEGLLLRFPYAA
# protocol-notes: FACS, hybridoma supernatant
Listing of entries alongside the reported MFI ratio over secondary antibody.
// return a plain number; no unit text

Check out these entries, answers already filled in.
binder: CD98HC.03.031 (antibody, V domains shown, hybridoma IgG) VH: QVQLQQSGAELVRPGVSVKISCKASGYTFTDYAMHWVKQSHAKSLEWIGVISTYYGDTTYNQKFKDKATMTVDKSSSTAYLELARLTSEDSAIYYCARVWLLSYAMDNWGQGTSVTVSS VL: DIVMTQSQRFMSTSVGDGVRITCKASQNVRTAVAWYQQKPGQSPKALINLAPNRHTGVPDRFTARGSGTDFTLTISNVQSEDLADYFCLQHWNYPLTFGAGTKLELK
quantitative-result: 198
//
binder: CD98HC.04.018 (antibody, V domains shown, hybridoma IgG) VH: QIQLVQSGPELKKPGETVKISCKASGYTFRNYGMNWVKQAPGKGLKWMGWINTYTGEPTYAEDFKGRFAFSLETSASTAYLQINKLKNEDEATYFCARGEAHWYFDVWGAGTTVTVSS VL: QIVLTQSPAIMSASLGERVTMTCTASSSVSSSYLYWYQQKPGSSPKLWIYSIFNLASGVPARFSGSGSGTSYSLTISSMEAEDAATYYCHQYHRSPPTFGGGTKLEIK
quantitative-result: 335

Here is the next item to consider.
Exercise: May I ask what MFI ratio over secondary antibody has been recorded for CD98HC.04.046 (antibody, V domains shown, hybridoma IgG) VH: QIQLVQSGPVLKKPGETVKISCKASGYTFTNFGMNWVKQAPGKGLKWMGWIDTYTREPTYVDDFKGRFAFSLETSVTTAYLQINDLKNEDSATYFCARGESHWYFDVWGAGTTVTVSS VL: QIVLTQSPAIMSASLGERVTMTCIVSSSVSSSYLYWYQQKPGSSPKLWIYSTSILASGVPGRFSGSGSGTSYSLTISSMEAEDAATYYCHQYHRSPPTFGGGTKLEIK ?
Solution: 147
